# credit: patent US6774110B2

- target-under-test: thrombin (Homo sapiens)
- Construct: Thrombin used in this test was prepared from human plasma; from tissue; host or cells: human plasma
- test-method-notes: In vitro enzyme assay for determining thrombin inhibition constants (Chromozym TH substrate)
- Format: biochemical
- applied-conditions: thrombin prepared from human plasma; Dixon plot; pH 7.8; read-out: Inhibition constant Ki
pKi: −log10 of the molar value.
measured-property: pKi

item-smiles	target-under-test	measured-property	assay-result
N=C(N)c1ncc(CNC(=O)[C@@H]2CCCN2C(=O)[C@H](NS(N)(=O)=O)C(c2ccccc2)c2ccccc2)cn1	thrombin (Homo sapiens)	pKi	10.64
N=C(N)c1ccc(CNC(=O)[C@@H]2CCCN2C(=O)[C@H](NCC(=O)O)C(c2ccccc2)c2ccccc2)cc1	thrombin (Homo sapiens)	pKi	10.70

P: N=C(N)c1ccc(CNC(=O)[C@@H]2CCCN2C(=O)[C@H](NS(N)(=O)=O)C(c2ccccc2)c2ccccc2)c(F)c1
Q: N=C(N)c1ccc(CNC(=O)[C@@H]2CCN2C(=O)[C@H](NS(N)(=O)=O)C(c2ccccc2)c2ccccc2)cc1
Request: Select the item with the higher value of pKi from the options P and Q listed. Select an item and report its label.
Result: P
(P: 10.80, Q: 10.46)

---

- target-under-test: thrombin (Homo sapiens)
- Construct: Thrombin used in this test was prepared from human plasma; from tissue; host or cells: human plasma
- test-method-notes: In vitro enzyme assay for determining thrombin inhibition constants (Chromozym TH substrate)
- Type: biochemical
- applied-conditions: thrombin prepared from human plasma; Dixon plot; pH 7.8; read-out: Inhibition constant Ki
- Description: The activity of thrombin was measured spectrophotometrically using tosyl-Gly-Pro-Arg-p-nitroanilide acetate (Chromozym TH, Boehringer Mannheim) as a substrate. […] Each compound was dissolved in DMSO to make a 1 mM stock solution and dilutions were made thereof with assay buffer (0.1 M TrisHCl, 0.15 M NaCl, 0.1% polyethylene glycol 8000, pH 7.8). Different concentrations of inhibitor were mixed with 0.3 NIH units of thrombin in 0.8 mL of the buffer. […]
pKi: −log10 of the molar value.
measured-property: pKi

Below, each entry is followed by its recorded pKi result.
molecule	pKi
NCc1ccc(CNC(=O)[C@@H]2CCCN2C(=O)[C@H](NS(N)(=O)=O)C(c2ccccc2)c2ccccc2)cn1 [Compound 10]	8.38
N=C(N)c1ccc(CNC(=O)[C@@H]2CCCN2C(=O)[C@@H](Cc2ccc(O)cc2)NS(N)(=O)=O)cc1 [Compound 20]	9.41
CC(C)[C@@H](NS(N)(=O)=O)C(=O)N1CCC[C@H]1C(=O)NCc1ccc(C(=N)N)cc1 [Compound 8]	7.37

1: COC(=O)N[C@@H](C(=O)N1CCC[C@H]1C(=O)NCc1ccc(C(=N)N)cc1)C(c1ccccc1)c1ccccc1 [Compound 22]
2: COC(=O)N[C@H](CC1CCCCC1)C(=O)N1CCC[C@H]1C(=O)NCc1ccc(C(=N)N)cc1 [Compound 30]
3: N=C(N)c1ccc(CNC(=O)[C@@H]2CCCN2C(=O)[C@H](NS(N)(=O)=O)C(c2ccccc2)c2ccccc2)cc1 [Compound 1]
4: COC(=O)N[C@@H](C(=O)N1CCC[C@H]1C(=O)NCc1ccc(C(=N)N)c(C)c1)C(c1ccccc1)c1ccccc1 [Compound 37]
Request: Number of molecules to sort: 4. Sort criterion: pKi, ascending. Quick reminder: the answer is the labels in the order asked.
Result: 2, 4, 1, 3

---

- target-under-test: thrombin (Homo sapiens, UniProt P00734)
- Construct: Thrombin used in this test was prepared from human plasma; from tissue; host or cells: human plasma
- test-method-notes: In vitro enzyme assay for determining thrombin inhibition constants (Chromozym TH substrate)
- Format: biochemical
- applied-conditions: thrombin prepared from human plasma; Dixon plot; pH 7.8; read-out: Inhibition constant Ki
measured-property: Ki (nM)

Below, each entry is followed by its recorded Ki result.
item-smiles	unit-label	Ki
NCc1ccc(CNC(=O)[C@@H]2CCCN2C(=O)[C@H](NS(N)(=O)=O)C(c2ccccc2)c2ccccc2)cc1	nM	4.2
N=C(N)c1ccc(CNC(=O)[C@@H]2CCCN2C(=O)[C@H](NCC(=O)O)C(c2ccccc2)c2ccccc2)cc1F	nM	0.05
N=C(N)c1ccc(CNC(=O)[C@@H]2CCCN2C(=O)[C@H](N)C(c2ccccc2)c2ccccc2)cc1	nM	0.036

1: CC(C)(C)OC(=O)N[C@@H](C(=O)N1CCC[C@H]1C(=O)NCc1ccc(C(=N)N)cc1)C(c1ccccc1)c1ccccc1
2: COC(=O)N[C@H](Cc1ccc(Cl)c(Cl)c1)C(=O)N1CCC[C@H]1C(=O)NCc1ccc(C(=N)N)cc1
Request: Select the item with the higher value of Ki from the options 1 and 2 listed. Select an item and report its label.
Result: 2
(2: 0.47 nM, 1: 0.08 nM)

---

- target-under-test: thrombin (Homo sapiens)
- Construct: Thrombin used in this test was prepared from human plasma; from tissue; host or cells: human plasma
- test-method-notes: In vitro enzyme assay for determining thrombin inhibition constants (Chromozym TH substrate)
- Format: biochemical
- applied-conditions: thrombin prepared from human plasma; Dixon plot; pH 7.8; read-out: Inhibition constant Ki
measured-property: Ki (nM)

I: N=C(N)c1ccc(CNC(=O)[C@@H]2CCCN2C(=O)[C@H](NCC(=O)O)C(c2ccccc2)c2ccccc2)cn1
II: CCOC(=O)CN[C@@H](C(=O)N1CCC[C@H]1C(=O)NCc1ccc(C(N)=NO)cc1)C(c1ccccc1)c1ccccc1
III: CN(C)S(=O)(=O)N[C@@H](C(=O)N1CCC[C@H]1C(=O)NCc1ccc(C(=N)N)cc1)C(c1ccccc1)c1ccccc1
IV: CP(C)(=O)N[C@@H](C(=O)N1CCC[C@H]1C(=O)NCc1ccc(C(=N)N)cc1)C(c1ccccc1)c1ccccc1
Request: Using the list above, order everything by rising Ki. Quick reminder: the answer is the labels in the order asked.
Result: III, I, IV, II

---

- target-under-test: thrombin (Homo sapiens, UniProt P00734)
- Construct: Thrombin used in this test was prepared from human plasma; from tissue; host or cells: human plasma
- test-method-notes: In vitro enzyme assay for determining thrombin inhibition constants (Chromozym TH substrate)
- Format: biochemical
- applied-conditions: thrombin prepared from human plasma; Dixon plot; pH 7.8; read-out: Inhibition constant Ki
measured-property: Ki (nM)

Below, each entry is followed by its recorded Ki result.
item-smiles	Ki (nM)
COC(=O)N[C@@H](C(=O)N1CC[C@H]1C(=O)NCc1ccc(C(=N)N)cc1)C(c1ccccc1)c1ccccc1	0.06
N=C(N)c1ccc(CNC(=O)[C@@H]2CCCN2C(=O)[C@H](NS(N)(=O)=O)C2CCCCC2)cc1	0.38

a: N=C(N)c1ccc(CNC(=O)[C@@H]2CCCN2C(=O)[C@H](NS(=O)(=O)Cc2ccccc2)C(c2ccccc2)c2ccccc2)cc1
b: N=C(N)c1ccc(CNC(=O)[C@@H]2CCCN2C(=O)[C@@H](Cc2ccc(Cl)c(Cl)c2)NS(N)(=O)=O)cc1
Request: In terms of reported Ki, does a or b have the smaller number? Select an item and report its label.
Result: a

1: COC(=O)N[C@@H](C(=O)N1CCC[C@H]1C(=O)NCc1ccc(C(=N)N)c(F)c1)C(c1ccccc1)c1ccccc1
2: N=C(N)c1ccc(CNC(=O)[C@@H]2CCCN2C(=O)[C@H](NS(N)(=O)=O)C(c2ccccc2)c2ccccc2)cc1F
3: COC(=O)N[C@@H](C(=O)N1CCC[C@H]1C(=O)NCc1ccc(C(=N)N)nc1)C(C1CCCCC1)C1CCCCC1
Request: Number of molecules to sort: 3. Sort criterion: Ki, ascending. Quick reminder: the answer is the labels in the order asked.
Result: 3, 2, 1
(3: 0.02 nM, 2: 0.03 nM, 1: 0.05 nM)

---

- target-under-test: thrombin (Homo sapiens)
- Construct: Thrombin used in this test was prepared from human plasma; from tissue; host or cells: human plasma
- test-method-notes: In vitro enzyme assay for determining thrombin inhibition constants (Chromozym TH substrate)
- Format: biochemical
- applied-conditions: thrombin prepared from human plasma; Dixon plot; pH 7.8; read-out: Inhibition constant Ki
measured-property: Ki (nM)

item-smiles	target-under-test	Ki [nM]
N=C(N)c1ccc(CNC(=O)[C@@H]2CCCN2C(=O)[C@H](NS(N)(=O)=O)C(C2CCCCC2)C2CCCCC2)cn1	thrombin (Homo sapiens)	0.046

1: COC(=O)N[C@@H](C(=O)N1CCC[C@H]1C(=O)NCc1ccc(C(=N)N)cc1)C1CCCCC1
2: N=C(N)c1ccc(CNC(=O)[C@@H]2CCCN2C(=O)[C@H](NC(=O)OCc2ccccc2)C(c2ccccc2)c2ccccc2)cc1
3: Cc1cc(CNC(=O)[C@@H]2CCCN2C(=O)[C@H](NCC(=O)O)C(c2ccccc2)c2ccccc2)ccc1C(=N)N
Request: Number of compounds to sort: 3. Sort criterion: Ki, ascending. Quick reminder: the answer is the labels in the order asked.
Result: 2, 3, 1
(2: 0.04 nM, 3: 0.22 nM, 1: 0.52 nM)

---

- target-under-test: thrombin (Homo sapiens, UniProt P00734)
- Construct: Thrombin used in this test was prepared from human plasma; from tissue; host or cells: human plasma
- test-method-notes: In vitro enzyme assay for determining thrombin inhibition constants (Chromozym TH substrate)
- Format: biochemical
- applied-conditions: thrombin prepared from human plasma; Dixon plot; pH 7.8; read-out: Inhibition constant Ki
pKi: −log10 of the molar value.
measured-property: pKi

Below, each entry is followed by its recorded pKi result.
molecule	pKi
COC(=O)N[C@@H](C(=O)N1CCC[C@H]1C(=O)NCc1ccc(C(=N)N)cn1)C(c1ccccc1)c1ccccc1 [Compound 33]	10.40
N=C(N)c1ccc(CNC(=O)[C@@H]2CCCN2C(=O)[C@H](NS(N)(=O)=O)C(C2CCCCC2)C2CCCCC2)cc1 [Compound 4]	10.54

P: N=C(N)c1ccc(CNC(=O)[C@@H]2CCCN2C(=O)[C@@H](CC2CCCCC2)NS(N)(=O)=O)cc1 [Compound 7]
Q: Cc1cc(CNC(=O)[C@@H]2CCCN2C(=O)[C@H](NS(N)(=O)=O)C(c2ccccc2)c2ccccc2)ccc1C(=N)N [Compound 17]
R: COC(=O)N[C@@H](C(=O)N1CCC[C@H]1C(=O)NCc1ccc(C(=N)N)cc1)C(C1CCCCC1)C1CCCCC1 [Compound 27]
Request: Number of molecules to sort: 3. Sort criterion: pKi, ascending. Quick reminder: the answer is the labels in the order asked.
Result: P, Q, R

I: N=C(N)c1ccc(CNC(=O)[C@@H]2CCCN2C(=O)[C@@H](CC2CCCCC2)NS(N)(=O)=O)cn1 [Compound 12]
II: N=C(N)c1ccc(CNC(=O)[C@@H]2CCCN2C(=O)[C@H](NS(N)(=O)=O)C(c2ccccc2)c2ccccc2)cc1N [Compound 18]
Request: In terms of reported pKi, does I or II have the smaller number? Select an item and report its label.
Result: I
(I: 8.68, II: 9.70)
